tested.system: HLA-B*44:02
method.notes: IEDB peptide-MHC binding, purified MHC/competitive/radioactivity; filed as Kd, often an IC50 or EC50 that approximates it; bounds were set here for any values at or beyond the usual limits of such assays
condition.info: source organism: Mammarenavirus choriomeningitidis
endpoint: Kd (nM)

ordered.residues: ADYLSCSHF
unit.label: nM
experimental.value: 319

---

tested.system: HLA-B*57:01
method.notes: IEDB peptide-MHC binding, purified MHC/direct/fluorescence; filed as Kd, often an IC50 or EC50 that approximates it; bounds were set here for any values at or beyond the usual limits of such assays
condition.info: source organism: Vibrio vulnificus YJ016

ordered.residues: KRFYQTVGF
tested.system: HLA-B*57:01
Kd: ≥ 20 µM

Ref: the Immune Epitope Database (IEDB)
